system tested: Lysosomal acid glucosylceramidase (Homo sapiens)
assay info: Inhibition of human recombinant imiglucerase using 4-methylumbelliferyl-beta-D-glucopyranoside as substrate preincubated for 30 mins at pH 7 before substrate addition measured after 10 mins
This section presents compounds with their documented IC50 values.
Quick reminder: number only, in µM, skip the unit.

{"mol": "O=C(CCCN[C@@H]1[C@H](O)[C@H](O)[C@@H](O)[C@H](O)[C@H]1O)NC12CC3CC(CC(C3)C1)C2", "value unit": "µM", "readout number": 0.37}

Here is another compound to look at.
In plain terms, O=C(CCCN[C@H]1[C@H](O)[C@@H](O)[C@H](O)[C@@H](O)[C@@H]1O)NC12CC3CC(CC(C3)C1)C2 has a documented IC50 of 58

---

system tested: Lysosomal acid glucosylceramidase (Homo sapiens)
Sequence (P04062 whole entry): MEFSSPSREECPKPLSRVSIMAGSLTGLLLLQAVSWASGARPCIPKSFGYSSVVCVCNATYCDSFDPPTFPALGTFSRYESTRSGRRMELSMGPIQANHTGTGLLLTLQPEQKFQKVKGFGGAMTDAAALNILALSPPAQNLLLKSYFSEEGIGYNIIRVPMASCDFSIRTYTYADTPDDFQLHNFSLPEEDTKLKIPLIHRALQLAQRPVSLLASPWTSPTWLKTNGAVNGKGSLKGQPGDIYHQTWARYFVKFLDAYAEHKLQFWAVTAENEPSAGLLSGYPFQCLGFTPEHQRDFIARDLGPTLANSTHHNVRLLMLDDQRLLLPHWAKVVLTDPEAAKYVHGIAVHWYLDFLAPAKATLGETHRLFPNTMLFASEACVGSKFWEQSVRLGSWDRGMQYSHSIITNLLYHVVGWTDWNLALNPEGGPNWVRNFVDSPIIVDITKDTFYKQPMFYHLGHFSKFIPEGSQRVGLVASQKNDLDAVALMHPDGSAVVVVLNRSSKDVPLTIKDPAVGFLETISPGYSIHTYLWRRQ
assay info: Competitive inhibition of human recombinant imiglucerase using 4-methylumbelliferyl-beta-D-glucopyranoside as substrate preincubated for 30 mins at pH 7 before substrate addition measured after 10 mins by Lineweaver-Burk or Dixon plot analysis
This section presents molecules with their documented Ki values.
Quick reminder: number only, in µM, skip the unit.

{"mol": "O=C(CCCN[C@@H]1[C@H](O)[C@H](O)[C@@H](O)[C@H](O)[C@H]1O)NC12CC3CC(CC(C3)C1)C2", "Ki / µM": 0.25}

Here is another molecule to look at.
In plain terms, O=C(CCCN[C@H]1[C@H](O)[C@@H](O)[C@H](O)[C@@H](O)[C@@H]1O)NC12CC3CC(CC(C3)C1)C2 has a documented Ki of 45

Source: ChEMBL document CHEMBL3217407
